Target: Recombinant Human Poly(ADP-Ribose) Polymerase (PARP), PARP-1 (Homo sapiens (Human), UniProt P09874)
Sequence (P09874 whole entry): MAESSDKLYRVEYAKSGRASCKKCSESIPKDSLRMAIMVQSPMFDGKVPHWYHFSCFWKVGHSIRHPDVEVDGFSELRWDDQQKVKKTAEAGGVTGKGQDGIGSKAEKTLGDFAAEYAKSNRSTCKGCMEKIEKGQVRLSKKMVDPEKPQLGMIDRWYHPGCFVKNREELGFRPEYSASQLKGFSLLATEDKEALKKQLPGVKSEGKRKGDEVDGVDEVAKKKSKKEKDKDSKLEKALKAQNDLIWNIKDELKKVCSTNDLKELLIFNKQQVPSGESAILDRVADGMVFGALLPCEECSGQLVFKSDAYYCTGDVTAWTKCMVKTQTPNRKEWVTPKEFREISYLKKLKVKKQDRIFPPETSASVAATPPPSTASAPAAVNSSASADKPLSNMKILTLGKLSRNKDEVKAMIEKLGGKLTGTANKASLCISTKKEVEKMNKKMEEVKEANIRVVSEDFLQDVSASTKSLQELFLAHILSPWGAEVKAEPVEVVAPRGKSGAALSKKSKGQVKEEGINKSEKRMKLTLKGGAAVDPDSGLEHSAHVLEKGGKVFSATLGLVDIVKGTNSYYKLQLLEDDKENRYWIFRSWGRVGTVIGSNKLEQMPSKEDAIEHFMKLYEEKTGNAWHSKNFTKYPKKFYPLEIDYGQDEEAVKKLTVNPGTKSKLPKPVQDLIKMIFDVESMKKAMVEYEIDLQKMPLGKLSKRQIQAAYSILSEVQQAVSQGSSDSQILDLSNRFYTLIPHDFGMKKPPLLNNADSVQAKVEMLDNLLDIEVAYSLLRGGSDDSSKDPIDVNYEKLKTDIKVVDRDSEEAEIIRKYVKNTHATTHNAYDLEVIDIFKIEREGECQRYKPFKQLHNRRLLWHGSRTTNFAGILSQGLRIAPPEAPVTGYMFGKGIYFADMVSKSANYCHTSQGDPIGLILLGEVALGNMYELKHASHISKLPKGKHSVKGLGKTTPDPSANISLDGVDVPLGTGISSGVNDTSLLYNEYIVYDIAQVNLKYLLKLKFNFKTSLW
Conditions: read-out: PARP-1 (Ki); Table 1; text calls the values EC50s
reported-property: Ki
Answer by giving the amount and then stating its unit.

Prompt line: Any idea what its Ki is? The compound is O=C1CCCN1c1ccc(Cc2n[nH]c(=O)c3c2CCCC3)cn1 [Example 104]
Response line: 1230 nM

Prompt line: Given the compound O=C(COc1ccc(OCc2ccccc2)cc1)Nc1cc(Cc2n[nH]c(=O)c3c2NCCC3)ccc1F [Example 481] , what is its reported Ki?
Response line: 12 nM

Prompt line: Please look up its Ki: CNC(=O)c1cc(Cc2n[nH]c(=O)c3c2CCCC3)ccn1 [Example 67]
Response line: 50 nM

Prompt line: Fill in the blank: the reported Ki of CC(C)n1nnc2cc(C(=O)N3CCN(C(=O)c4cc(Cc5n[nH]c(=O)c6c5NCCC6)ccc4F)CC3)ccc21 [Example 643] is ____.
Response line: 1.2 nM

Prompt line: Entry under review: COc1ccc(NC(=O)c2cccc(Cc3n[nH]c(=O)c4c3CCCC4)c2)cc1F [Example 346] . Reported Ki?
Response line: 33 nM

Prompt line: Give its Ki value. Item: O=C(NN1CCCCCC1)c1cccc(Cc2n[nH]c(=O)c3c2CCCC3)c1 [Example 54]
Response line: 205 nM

Prompt line: Query: Ki; subject: CC(C)(C)c1cccc(NC(=O)c2cccc(Cc3n[nH]c(=O)c4c3CCCC4)c2)c1 [Example 335]
Response line: 122 nM

Prompt line: Requested field: Ki. Item: NC(=O)c1cccc(-c2cc(CCc3n[nH]c(=O)c4c3CCCC4)ccc2F)c1 [Example 272]
Response line: 204 nM

###

Target: Recombinant Human Poly(ADP-Ribose) Polymerase (PARP), PARP-1 (Homo sapiens (Human))
Conditions: read-out: PARP-1 (Ki); Table 3; H analogs versus para-F analogs
reported-property: Ki (nM)
Just the number please, in nM, no unit attached.

Prompt line: What reported Ki corresponds to CC(=O)N1CCN(C(=O)c2cccc(Cc3n[nH]c(=O)c4c3CCCC4)c2)CC1 [drawing 28] on Recombinant Human Poly(ADP-Ribose) Polymerase (PARP), PARP-1 (Homo sapiens (Human))?
Response line: 3

Prompt line: Could you share what Ki was measured for O=C(c1cccc(Cc2n[nH]c(=O)c3c2CCCC3)c1)N1CCN(c2ccccc2)CC1 [drawing 34] , tested on Recombinant Human Poly(ADP-Ribose) Polymerase (PARP), PARP-1 (Homo sapiens (Human))?
Response line: 3

Prompt line: Please state recorded Ki (tested on Recombinant Human Poly(ADP-Ribose) Polymerase (PARP), PARP-1 (Homo sapiens (Human))) of O=C(CCN1CCCCC1)Nc1cccc(Cc2n[nH]c(=O)c3c2CCCC3)c1 [drawing 24]
Response line: 280

Prompt line: Give Recombinant Human Poly(ADP-Ribose) Polymerase (PARP), PARP-1 (Homo sapiens (Human)) Ki for COc1ccc(C(=O)CCC(=O)Nc2cccc(Cc3n[nH]c(=O)c4c3CCCC4)c2)cc1 [drawing 14]
Response line: 1.9

Prompt line: Lab note: need Ki for `NCC(=O)Nc1cc(Cc2n[nH]c(=O)c3c2CCCC3)ccc1F` on Recombinant Human Poly(ADP-Ribose) Polymerase (PARP), PARP-1 (Homo sapiens (Human)), anyone have it?
Response line: 2.9

Prompt line: Record O=C(c1cccc(Cc2n[nH]c(=O)c3c2CCCC3)c1)N1CCN(c2ccccc2Cl)CC1 [drawing 36] : what is its Ki with Recombinant Human Poly(ADP-Ribose) Polymerase (PARP), PARP-1 (Homo sapiens (Human))?
Response line: 10

Prompt line: Fill in the recorded Ki for this compound, with Recombinant Human Poly(ADP-Ribose) Polymerase (PARP), PARP-1 (Homo sapiens (Human)) as test system: O=C(c1cccc(Cc2n[nH]c(=O)c3c2CCCC3)c1)N1CCN(c2ccc(F)cc2)CC1 [drawing 40]
Response line: 6

Prompt line: # query: Ki | item O=C(c1cc(Cc2n[nH]c(=O)c3c2CCCC3)ccc1F)N1CCN(c2ncccn2)CC1 [drawing 27] | system: Recombinant Human Poly(ADP-Ribose) Polymerase (PARP), PARP-1 (Homo sapiens (Human))
Response line: 0.7

Prompt line: Provide value of Ki for this record tested with Recombinant Human Poly(ADP-Ribose) Polymerase (PARP), PARP-1 (Homo sapiens (Human)): CCN(CC)C(=O)C1CCCN(C(=O)c2cccc(Cc3n[nH]c(=O)c4c3CCCC4)c2)C1 (centres unmarked)
Response line: 27

Prompt line: What Ki appears in the records for this compound with Recombinant Human Poly(ADP-Ribose) Polymerase (PARP), PARP-1 (Homo sapiens (Human))? Cc1c(C(=O)Nc2cc(Cc3n[nH]c(=O)c4c3CCCC4)ccc2F)cnn1-c1ccccc1 [drawing 23]
Response line: 15.8

Prompt line: Observed Ki on Recombinant Human Poly(ADP-Ribose) Polymerase (PARP), PARP-1 (Homo sapiens (Human)) for `O=C(CCN1CCCCC1)Nc1cc(Cc2n[nH]c(=O)c3c2CCCC3)ccc1F` , please.
Response line: 18.4

Prompt line: Item: CN1CCN(CCNC(=O)c2cccc(Cc3n[nH]c(=O)c4c3CCCC4)c2)CC1 [drawing 54] Test system: Recombinant Human Poly(ADP-Ribose) Polymerase (PARP), PARP-1 (Homo sapiens (Human)) Read-out: Ki Value: ?
Response line: 24

Prompt line: Give Recombinant Human Poly(ADP-Ribose) Polymerase (PARP), PARP-1 (Homo sapiens (Human)) Ki for CN(C)CCN(C)C(=O)c1cc(Cc2n[nH]c(=O)c3c2CCCC3)ccc1F [drawing 53]
Response line: 3.6

Prompt line: Recombinant Human Poly(ADP-Ribose) Polymerase (PARP), PARP-1 (Homo sapiens (Human)) / Ki / CCN(CC)C(=O)C1CCCN(C(=O)c2cc(Cc3n[nH]c(=O)c4c3CCCC4)ccc2F)C1 (centres unmarked) [drawing 51] : value?
Response line: 6

Prompt line: Please tell me: Ki of O=C(CCCC(=O)Nc1cc(Cc2n[nH]c(=O)c3c2CCCC3)ccc1F)Nc1ccccc1 [drawing 21] , system Recombinant Human Poly(ADP-Ribose) Polymerase (PARP), PARP-1 (Homo sapiens (Human))?
Response line: 0.6

Prompt line: Lab note: need Ki for O=C(Nc1cccc(Cc2n[nH]c(=O)c3c2CCCC3)c1)C1CNC1 [drawing 12] on Recombinant Human Poly(ADP-Ribose) Polymerase (PARP), PARP-1 (Homo sapiens (Human)), anyone have it?
Response line: 6.3

Prompt line: Give the reported Ki for CN1CCCN(C(=O)c2cc(Cc3n[nH]c(=O)c4c3CCCC4)ccc2F)CC1 [drawing 43] (system: Recombinant Human Poly(ADP-Ribose) Polymerase (PARP), PARP-1 (Homo sapiens (Human))).
Response line: 1.5

Prompt line: Request body: readout Ki, system Recombinant Human Poly(ADP-Ribose) Polymerase (PARP), PARP-1 (Homo sapiens (Human)), query CN1CCCN(C(=O)c2cccc(Cc3n[nH]c(=O)c4c3CCCC4)c2)CC1 [drawing 42] . Return the value.
Response line: 10

Prompt line: For Recombinant Human Poly(ADP-Ribose) Polymerase (PARP), PARP-1 (Homo sapiens (Human)), provide Ki of Cc1c(C(=O)Nc2cccc(Cc3n[nH]c(=O)c4c3CCCC4)c2)cnn1-c1ccccc1 [drawing 22] please.
Response line: 9

Prompt line: Find the measured Ki: item CN1CCN(CCNC(=O)c2cc(Cc3n[nH]c(=O)c4c3CCCC4)ccc2F)CC1 [drawing 55] , target or system Recombinant Human Poly(ADP-Ribose) Polymerase (PARP), PARP-1 (Homo sapiens (Human)).
Response line: 1.1

Prompt line: Recall the recorded Ki for O=C(c1cc(Cc2n[nH]c(=O)c3c2CCCC3)ccc1F)N1CCC(O)CC1 [drawing 47] with Recombinant Human Poly(ADP-Ribose) Polymerase (PARP), PARP-1 (Homo sapiens (Human)) and state it.
Response line: 1.3

Prompt line: Under Recombinant Human Poly(ADP-Ribose) Polymerase (PARP), PARP-1 (Homo sapiens (Human)): Ki value of O=C(c1cc(Cc2n[nH]c(=O)c3c2CCCC3)ccc1F)N1CCN(c2ccccn2)CC1 [drawing 33] ?
Response line: 2

Prompt line: Identify the measured Ki of CCN1CCN(C(=O)c2cccc(Cc3n[nH]c(=O)c4c3CCCC4)c2)CC1 [drawing 30] for Recombinant Human Poly(ADP-Ribose) Polymerase (PARP), PARP-1 (Homo sapiens (Human)).
Response line: 10

Prompt line: Recombinant Human Poly(ADP-Ribose) Polymerase (PARP), PARP-1 (Homo sapiens (Human)) / Ki / `O=C1CCC(=O)N1c1cc(Cc2n[nH]c(=O)c3c2CCCC3)ccc1F` : value?
Response line: 1.1

Prompt line: What Ki appears in the records for this compound with Recombinant Human Poly(ADP-Ribose) Polymerase (PARP), PARP-1 (Homo sapiens (Human))? NCC(=O)Nc1cccc(Cc2n[nH]c(=O)c3c2CCCC3)c1 [drawing 10]
Response line: 12

Prompt line: Given the entry O=C(c1cccc(Cc2n[nH]c(=O)c3c2CCCC3)c1)N1CCC(O)CC1 [drawing 46] , what Ki was observed with Recombinant Human Poly(ADP-Ribose) Polymerase (PARP), PARP-1 (Homo sapiens (Human))?
Response line: 5

Prompt line: What Ki appears in the records for this compound with Recombinant Human Poly(ADP-Ribose) Polymerase (PARP), PARP-1 (Homo sapiens (Human))? NC(=O)C1CCCN(C(=O)c2cccc(Cc3n[nH]c(=O)c4c3CCCC4)c2)C1 (centres unmarked) [drawing 44]
Response line: 19

Prompt line: Enter reported Ki observed with Recombinant Human Poly(ADP-Ribose) Polymerase (PARP), PARP-1 (Homo sapiens (Human)) for O=C(c1cc(Cc2n[nH]c(=O)c3c2CCCC3)ccc1F)N1CCN(c2ccccc2)CC1 [drawing 35]
Response line: 3

Prompt line: Notebook: pull reported Ki for Recombinant Human Poly(ADP-Ribose) Polymerase (PARP), PARP-1 (Homo sapiens (Human)), entry `O=C1CCC(=O)N1c1cccc(Cc2n[nH]c(=O)c3c2CCCC3)c1`
Response line: 2

Prompt line: Field: Ki (Recombinant Human Poly(ADP-Ribose) Polymerase (PARP), PARP-1 (Homo sapiens (Human))). Entry: `CN(C)CCN(C)C(=O)c1cccc(Cc2n[nH]c(=O)c3c2CCCC3)c1`
Response line: 13

Prompt line: Please tell me: Ki of COc1ccc(C(=O)CCC(=O)Nc2cc(Cc3n[nH]c(=O)c4c3CCCC4)ccc2F)cc1 [drawing 15] , system Recombinant Human Poly(ADP-Ribose) Polymerase (PARP), PARP-1 (Homo sapiens (Human))?
Response line: 0.7

Prompt line: For the record CC(=O)N1CCN(C(=O)c2cc(Cc3n[nH]c(=O)c4c3CCCC4)ccc2F)CC1 [drawing 29] , what value of Ki is listed for Recombinant Human Poly(ADP-Ribose) Polymerase (PARP), PARP-1 (Homo sapiens (Human))?
Response line: 0.1

Prompt line: Find the measured Ki: item O=C(c1cccc(Cc2n[nH]c(=O)c3c2CCCC3)c1)N1CCN(c2ccccc2F)CC1 [drawing 38] , target or system Recombinant Human Poly(ADP-Ribose) Polymerase (PARP), PARP-1 (Homo sapiens (Human)).
Response line: 4

Prompt line: Enter reported Ki observed with Recombinant Human Poly(ADP-Ribose) Polymerase (PARP), PARP-1 (Homo sapiens (Human)) for O=C(c1cccc(Cc2n[nH]c(=O)c3c2CCCC3)c1)N1CCN(c2ncccn2)CC1 [drawing 26]
Response line: 0.8

Prompt line: Request body: readout Ki, system Recombinant Human Poly(ADP-Ribose) Polymerase (PARP), PARP-1 (Homo sapiens (Human)), query `O=C(Nc1cc(Cc2n[nH]c(=O)c3c2CCCC3)ccc1F)C1CNC1` . Return the value.
Response line: 0.7
